# Test system: normal primary NK cells, pool 1 (3 donors), resting (IL-2 0 ng/mL);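 note: normalised to DMSO-only wells as negative and benzethonium chloride as positive control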
# Experimental Details: percent inhibition of viability; higher = more inhibition
# Condition Context: 72 h; 1000 nM
Recorded Metric: percent inhibition of viability (%)

{"Compound": "COc1cc([C@@H]2c3cc4c(cc3[C@@H](O[C@@H]3O[C@@H]5CO[C@@H](C)O[C@H]5[C@H](O)[C@H]3O)[C@H]3COC(=O)[C@H]23)OCO4)cc(OC)c1O [Etoposide] (max concentration tested 10000 nM)", "Test Target": "normal primary NK cells, pool 1 (3 donors), resting (IL-2 0 ng/mL)", "Recorded Metric": "percent inhibition of viability", "Obs Value": 40}
{"Compound": "O=C(O)CCCc1ccc(N(CCCl)CCCl)cc1 [Chlorambucil] (max concentration tested 10000 nM)", "Test Target": "normal primary NK cells, pool 1 (3 donors), resting (IL-2 0 ng/mL)", "Recorded Metric": "percent inhibition of viability", "Obs Value": 19.2}
{"Compound": "O=C1NC(=O)[C@@H](c2cn3c4c(cccc24)CCC3)[C@@H]1c1c[nH]c2ccccc12 [Tivantinib] (max concentration tested 1000 nM)", "Test Target": "normal primary NK cells, pool 1 (3 donors), resting (IL-2 0 ng/mL)", "Recorded Metric": "percent inhibition of viability", "Obs Value": 8.64}
{"Compound": "CCCCCCCCc1ccc(CCC(N)(CO)CO)cc1 [Fingolimod] (max concentration tested 10000 nM)", "Test Target": "normal primary NK cells, pool 1 (3 donors), resting (IL-2 0 ng/mL)", "Recorded Metric": "percent inhibition of viability", "Obs Value": -3.49}
{"Compound": "CN[C@@H](C)C(=O)N[C@H]1CN(C(=O)CC(C)C)CC[C@H]2CC[C@@H](C(=O)NC(c3ccccc3)c3ccccc3)N2C1=O [AT-406] (max concentration tested 10000 nM)", "Test Target": "normal primary NK cells, pool 1 (3 donors), resting (IL-2 0 ng/mL)", "Recorded Metric": "percent inhibition of viability", "Obs Value": 28.4}
{"Compound": "Cn1c(Nc2ccc(C(F)(F)F)cc2)nc2cc(Oc3ccnc(-c4ncc(C(F)(F)F)[nH]4)c3)ccc21 [RAF265] (max concentration tested 1000 nM)", "Test Target": "normal primary NK cells, pool 1 (3 donors), resting (IL-2 0 ng/mL)", "Recorded Metric": "percent inhibition of viability", "Obs Value": 69.8}
{"Compound": "CN(N=O)C(=O)N[C@@H](C=O)[C@@H](O)[C@H](O)[C@H](O)CO [Streptozocin] (max concentration tested 10000 nM)", "Test Target": "normal primary NK cells, pool 1 (3 donors), resting (IL-2 0 ng/mL)", "Recorded Metric": "percent inhibition of viability", "Obs Value": -38.7}
{"Compound": "C[C@]12C=CC(=O)C=C1CC[C@@H]1[C@@H]2[C@@H](O)C[C@@]2(C)[C@H]1CC[C@]2(O)C(=O)CO [Prednisolone] (max concentration tested 10000 nM)", "Test Target": "normal primary NK cells, pool 1 (3 donors), resting (IL-2 0 ng/mL)", "Recorded Metric": "percent inhibition of viability", "Obs Value": 80.2}
{"Compound": "O=C(NC[C@H](O)CO)c1ccncc1Nc1ccc(I)cc1F [Pimasertib] (max concentration tested 10000 nM)", "Test Target": "normal primary NK cells, pool 1 (3 donors), resting (IL-2 0 ng/mL)", "Recorded Metric": "percent inhibition of viability", "Obs Value": 8.84}
{"Compound": "CNC(=O)c1ccccc1Sc1ccc2c(/C=C/c3ccccn3)n[nH]c2c1 [Axitinib] (max concentration tested 10000 nM)", "Test Target": "normal primary NK cells, pool 1 (3 donors), resting (IL-2 0 ng/mL)", "Recorded Metric": "percent inhibition of viability", "Obs Value": 0.6}
{"Compound": "Nc1nc(OCc2cc(Br)cs2)c2[nH]cnc2n1 [Lomeguatrib] (max concentration tested 10000 nM)", "Test Target": "normal primary NK cells, pool 1 (3 donors), resting (IL-2 0 ng/mL)", "Recorded Metric": "percent inhibition of viability", "Obs Value": 19.5}
